Test system: CCRIS mutagenicity, Ames/micronucleus/aberration tests
Test: CCRIS mutagenicity studies
Details: Test System: AMES SALMONELLA TYPHIMURIUM; Strain/Indicator: TA98; Metabolic Activation: NONE; Method: PREINCUBATION
Source text: The CCRIS database contains chemical records with carcinogenicity, mutagenicity, tumor promotion, and tumor inhibition test results. It was developed by the National Cancer Institute (NCI). Data are derived from studies cited in primary journals, current awareness tools, NCI reports, and other sources. Test results have been reviewed by experts in carcinogenesis and mutagenesis. CCRIS provides historical information from the years 1985 - 2011. It is no longer updated. […]
Activity calls are given as the source filed them. No rule for the calls is given here.
I would appreciate it if you answered using one of these outcomes: active, inactive

# cpd-smiles, assigned-category
records = [
    ("N/C(=N\\O)c1ccccc1", "inactive"),
]

Called result for Cc1ccc(NN=NCc2ccc([N+](=O)[O-])cc2)cc1
active

Kindly provide the recorded test outcome for the following compound: CNS(=O)(=O)c1ccc(NC(C)=O)cc1
inactive

Which outcome was entered for the compound CN(C)c1ccc(N=NS(=O)(=O)O)cc1 in this test?
active

Test call, this compound: Nc1ccc(Cl)cc1[N+](=O)[O-]
inactive

Please state the recorded outcome for this compound: c1ccc2c(c1)-c1cccc3c1c-2cc1ccccc13
inactive

Answer briefly: the call reported for O=S(=O)(O)Oc1ccc2cc3ccc4cccc5ccc(c2c1)c3c45 in this assay.
inactive
